Experiment: Single escalating dose IV infusion pharmacokinetics in healthy volunteers (noncompartmental)
Format: in vivo, human
Conditions: both sexes, human, plasma, iv, 6 mg/m^2, Compound 1 Concentration, Cohort 1, 6 mg/m^2 IV; Time 0.75 h; r7-9=Subjects 1-3,r11=Mean,r13=Min,r14=Median,r15=Max,r17=Geometric Mean
Protocol: Forty-five subjects have enrolled in the study. Analysis of plasma concentration versus time data for calculation of standard pharmacokinetic (PK) parameters following intravenous infusion administration was conducted using Phoenix WinNonlin version 6.3 using a nominal infusion duration and scheduled blood sampling times. Random subject numbers were assigned by the bioanalytical laboratory to retain the blind. […]
PROPERTY_NAME: concentration at 0.75 h (ng/mL)
Reply with just the number (in ng/mL).

What value of concentration at 0.75 h has been reported for the following compound? CN1CCN(c2ccc(Nc3ncc4cc5n(c4n3)C3(CCCCC3)CNC5=O)nc2)CC1 [Compound 1] 16.3

###

test: Compound 1 PK dosed Days 1-3 with etoposide and carboplatin; format: in vivo, human; conditions: human, plasma, intravenous, 200 mg/m2, 200 mg/m^2 with Etoposide and Carboplatin, Day 3, Median; read-out: Cmax
PROPERTY_NAME: Cmax (ng/mL)
Reply with just the number (in ng/mL).

What value of Cmax has been reported for the following compound? CN1CCN(c2ccc(Nc3ncc4cc5n(c4n3)C3(CCCCC3)CNC5=O)nc2)CC1 [Compound 1] 1100

###

Experiment: Topotecan PK following Compound 1 infusion
Format: in vivo, human
Conditions: human, plasma, intravenous, Topotecan […]^2 (Cohort 1) with Compound 1 200 mg/m^2, Day 1, Mean; read-out: t½ (converted)
Experimental: Blood samples were obtained prior to dosing, at the end of the 30-minute infusion (EOI), and at 0.5, 1, 1.5, 2, 2.5, 4, 6, 8, and 24 hours after the end of infusion. Analysis of plasma concentration versus time data for calculation of standard pharmacokinetic (PK) parameters following intravenous infusion administration was conducted using Phoenix WinNonlin version 6.3 using a nominal infusion duration and scheduled blood sampling times. […]
PROPERTY_NAME: half-life (h)
Reply with just the number (in h).

What value of half-life has been reported for the following compound? CC[C@@]1(O)C(=O)OCc2c1cc1n(c2=O)Cc2cc3c(CN(C)C)c(O)ccc3nc2-1.Cl [topotecan] 4.33

###

experiment: 14-day oral gavage toxicokinetic study in rats; assay type: in vivo; settings: male, rat, plasma, po, 5 mg/kg, Individual Compound 1 Plasma Concentration, rats, daily oral 5 mg/kg, Day 1, Male, 1 h
PROPERTY_NAME: concentration at 1 h (ng/mL)
Reply with just the number (in ng/mL).

What value of concentration at 1 h has been reported for the following compound? `CN1CCN(c2ccc(Nc3ncc4cc5n(c4n3)C3(CCCCC3)CNC5=O)nc2)CC1` 244

###

assay: Single escalating dose IV infusion pharmacokinetics in healthy volunteers (noncompartmental); type: in vivo, human; settings: both sexes, human, plasma, iv, 12 mg/m2, Cohort 2, 12 mg/m^2 IV; mean; read-out: Cmax averaged
PROPERTY_NAME: Cmax

What value of Cmax has been reported for the following compound? CN1CCN(c2ccc(Nc3ncc4cc5n(c4n3)C3(CCCCC3)CNC5=O)nc2)CC1 [Compound 1] 122 ng/mL

###

assay: 14-day oral gavage toxicokinetic study in rats; format: in vivo; settings: male, rat, plasma, po, 2 mg/kg, Compound 1 Plasma Concentration, rats, Male, Day 14, 12 h; daily oral 2 mg/kg (Group 7); individual animals
PROPERTY_NAME: concentration at 12 h
// unit must come after the numeric part

What value of concentration at 12 h has been reported for the following compound? `CN1CCN(c2ccc(Nc3ncc4cc5n(c4n3)C3(CCCCC3)CNC5=O)nc2)CC1` 65.7 ng/mL

###

Experiment: 14-day oral gavage toxicokinetic study in rats
Type: in vivo
Details: female, rat, plasma, po, 15 mg/kg, Mean Compound 1 Plasma Concentration, rats, oral 15 mg/kg, Day 14, […], Female
Protocol: Plasma was obtained from blood samples collected from rats in a composite sampling scheme, with 3 samples collected per sex, per dose, at each target collection time, as illustrated in Table 21 to Table 25. […] The following parameters were determined: […] A value of 0 ng/mL was assigned to all values below the lower limit of quantitation (BLQ, <10.0 ng/mL). […] CL: Clearance (L/h/kg), calculated as the dose divided by AUC(0-t). […] Cmax/Dose: Normalized Cmax, calculated as Cmax divided by total dose. […]
PROPERTY_NAME: concentration at […] (ng/mL)
Reply with just the number (in ng/mL).

What value of concentration at […] has been reported for the following molecule? `CN1CCN(c2ccc(Nc3ncc4cc5n(c4n3)C3(CCCCC3)CNC5=O)nc2)CC1` 131

###

assay: 14-day oral gavage toxicokinetic study in rats; format: in vivo; conditions: female, rat, plasma, po, 2 mg/kg, Compound 1 Plasma Concentration, rats, Female, Day 14, 0.5 h; daily oral 2 mg/kg (Group 7); individual animals
PROPERTY_NAME: concentration at 0.5 h (ng/mL)
Reply with just the number (in ng/mL).

What value of concentration at 0.5 h has been reported for the following compound? `CN1CCN(c2ccc(Nc3ncc4cc5n(c4n3)C3(CCCCC3)CNC5=O)nc2)CC1` 192

###

assay: 14-day oral gavage toxicokinetic study in rats; format: in vivo; conditions: male, rat, plasma, po, 15 mg/kg, Individual Compound 1 Plasma Concentration, rats, daily oral 15 mg/kg, Day 14, Male, 4 h
PROPERTY_NAME: concentration at 4 h (ng/mL)
Reply with just the number (in ng/mL).

What value of concentration at 4 h has been reported for the following compound? `CN1CCN(c2ccc(Nc3ncc4cc5n(c4n3)C3(CCCCC3)CNC5=O)nc2)CC1` 1160

###

Assay: Topotecan PK following Compound 1 infusion
Assay type: in vivo, human
Conditions: human, plasma, intravenous, Topotecan 0.75 mg/m^2 (Cohort 3) with Compound 1 200 mg/m^2, Day 1, Mean; read-out: AUCx5 (converted)
Protocol: Blood samples were obtained prior to dosing, at the end of the 30-minute infusion (EOI), and at 0.5, 1, 1.5, 2, 2.5, 4, 6, 8, and 24 hours after the end of infusion. Analysis of plasma concentration versus time data for calculation of standard pharmacokinetic (PK) parameters following intravenous infusion administration was conducted using Phoenix WinNonlin version 6.3 using a nominal infusion duration and scheduled blood sampling times. […]
PROPERTY_NAME: AUC (µM·h)
Reply with just the number (in µM·h).

What value of AUC has been reported for the following compound? `CC[C@@]1(O)C(=O)OCc2c1cc1n(c2=O)Cc2cc3c(CN(C)C)c(O)ccc3nc2-1.Cl` 1.03

###

experiment: Topotecan PK following Compound 1 infusion; assay type: in vivo, human; details: human, plasma, intravenous, Topotecan […]^2 (Cohort 1) with Compound 1 200 mg/m^2, Day 4, Mean; read-out: t½ (converted)
PROPERTY_NAME: half-life (h)
Reply with just the number (in h).

What value of half-life has been reported for the following molecule? `CC[C@@]1(O)C(=O)OCc2c1cc1n(c2=O)Cc2cc3c(CN(C)C)c(O)ccc3nc2-1.Cl` 4.87

###

assay: 14-day oral gavage toxicokinetic study in rats; assay type: in vivo; conditions: male, rat, plasma, po, 5 mg/kg, Mean Compound 1 Plasma Concentration, rats, oral 5 mg/kg, Day 1, 8 h, Male
PROPERTY_NAME: concentration at 8 h (ng/mL)
Reply with just the number (in ng/mL).

What value of concentration at 8 h has been reported for the following molecule? `CN1CCN(c2ccc(Nc3ncc4cc5n(c4n3)C3(CCCCC3)CNC5=O)nc2)CC1` 276

###

Assay: Single escalating dose IV infusion pharmacokinetics in healthy volunteers (noncompartmental)
Type: in vivo, human
Conditions: both sexes, human, plasma, iv, 48 mg/m^2, Compound 1 Concentration, Cohort 4, 48 mg/m^2 IV; Time 8.50 h; r7-9=Subjects 1-3,r11=Mean,r13=Min,r14=Median,r15=Max,r17=Geometric Mean
Experimental: Forty-five subjects have enrolled in the study. Analysis of plasma concentration versus time data for calculation of standard pharmacokinetic (PK) parameters following intravenous infusion administration was conducted using Phoenix WinNonlin version 6.3 using a nominal infusion duration and scheduled blood sampling times. Random subject numbers were assigned by the bioanalytical laboratory to retain the blind. […]
PROPERTY_NAME: concentration at 8.5 h (ng/mL)
Reply with just the number (in ng/mL).

What value of concentration at 8.5 h has been reported for the following molecule? CN1CCN(c2ccc(Nc3ncc4cc5n(c4n3)C3(CCCCC3)CNC5=O)nc2)CC1 [Compound 1] 12.1

###

Assay: Topotecan PK following Compound 1 infusion
Type: in vivo, human
Conditions: human, plasma, intravenous, topotecan 1.25 mg/m^2 (Cohort 2) after Compound 1 200 mg/m^2; Day 1; mean; read-out: AUCinf averaged
Experimental: Blood samples were obtained prior to dosing, at the end of the 30-minute infusion (EOI), and at 0.5, 1, 1.5, 2, 2.5, 4, 6, 8, and 24 hours after the end of infusion. Analysis of plasma concentration versus time data for calculation of standard pharmacokinetic (PK) parameters following intravenous infusion administration was conducted using Phoenix WinNonlin version 6.3 using a nominal infusion duration and scheduled blood sampling times. […]
PROPERTY_NAME: AUC(0-inf) (ng·h/mL)
Reply with just the number (in ng·h/mL).

What value of AUC(0-inf) has been reported for the following compound? `CC[C@@]1(O)C(=O)OCc2c1cc1n(c2=O)Cc2cc3c(CN(C)C)c(O)ccc3nc2-1.Cl` 180

Data provenance is patent US20160220569A1.
